Test: Stability of cannabinoid compounds and Vitamin E components in Beverage 1 (AB White) by LCMSMS
Type: physicochemical
Conditions: AB White stored at 8° C.; 8 days
RECORDED METRIC: Stability of Plant-Derived Cannabinoid Compounds in AB White, 8° C. (µg/mL)
# output: bare number, implied unit µg/mL

Lookup: Provide only the value of recorded Stability of Plant-Derived Cannabinoid Compounds in AB White, 8° C. for CCCCCc1cc(O)c2c(c1)OC(C)(C)c1ccc(C)cc1-2
Found: 2.75

Lookup: Provide only the value of recorded Stability of Plant-Derived Cannabinoid Compounds in AB White, 8° C. for CCCCCc1cc(O)c2c(c1)OC1(C)CCC3C1C2C3(C)C (stereo not shown)
Found: 0.537
